Assay target: Short transient receptor potential channel 4 (Mus musculus) (UniProt Q9QUQ5)
Sequence (Q9QUQ5 whole entry, looked up): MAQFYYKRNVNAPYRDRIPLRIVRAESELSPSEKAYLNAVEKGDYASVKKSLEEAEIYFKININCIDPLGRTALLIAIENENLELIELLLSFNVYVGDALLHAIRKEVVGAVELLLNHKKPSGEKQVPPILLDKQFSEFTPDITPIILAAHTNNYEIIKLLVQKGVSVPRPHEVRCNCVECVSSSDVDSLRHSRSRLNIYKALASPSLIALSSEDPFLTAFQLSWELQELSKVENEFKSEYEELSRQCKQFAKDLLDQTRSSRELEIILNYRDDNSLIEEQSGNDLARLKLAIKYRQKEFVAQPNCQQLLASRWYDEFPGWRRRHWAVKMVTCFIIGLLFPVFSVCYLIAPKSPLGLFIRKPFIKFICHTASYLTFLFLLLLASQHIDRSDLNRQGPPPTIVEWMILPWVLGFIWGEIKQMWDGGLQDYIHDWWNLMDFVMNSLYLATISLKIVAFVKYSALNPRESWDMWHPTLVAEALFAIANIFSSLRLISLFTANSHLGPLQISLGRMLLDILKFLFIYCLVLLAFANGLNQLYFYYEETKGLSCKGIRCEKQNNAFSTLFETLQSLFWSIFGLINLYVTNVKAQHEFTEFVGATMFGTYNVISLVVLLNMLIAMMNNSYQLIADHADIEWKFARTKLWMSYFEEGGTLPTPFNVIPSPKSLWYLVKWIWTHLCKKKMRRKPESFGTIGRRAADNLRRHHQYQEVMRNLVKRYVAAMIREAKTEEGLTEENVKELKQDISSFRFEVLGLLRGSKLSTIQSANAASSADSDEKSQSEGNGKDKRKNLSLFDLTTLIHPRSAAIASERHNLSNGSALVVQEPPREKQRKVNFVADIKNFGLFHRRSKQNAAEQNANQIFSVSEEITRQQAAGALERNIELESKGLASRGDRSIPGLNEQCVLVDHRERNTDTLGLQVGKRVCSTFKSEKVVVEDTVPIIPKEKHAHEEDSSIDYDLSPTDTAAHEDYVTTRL
Run description: blockers of DAMGO-evoked TRPC4 calcium flux – cell-based, Fluo4, HEK293 TRPC4beta/mu-opioid, confirmation (AID 2636)
Test settings: at 10 µM
Calls of active or inactive are those of the source.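 How the source made its calls: active means calcium signal cut by more than 3 SD below the full-agonist control yet still positive, in both repeats and the earlier primary screen; inactive means the rest.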
The categories you may choose from are active, inactive

Asked: Which outcome did this test record for the compound "NS(=O)(=O)c1ccc(NN=C2CCN(Cc3ccccc3)CC2)c([N+](=O)[O-])c1" ?
Given back: inactive

Asked: Per the records of this test, what outcome belongs to "CC(C)(C)c1cc2cccnc2n1Cc1ccccc1" ?
Given back: active

Asked: Which result was noted for this compound in the test: "COC(=O)[C@@]12CCCCN1[C@H](c1ccc(-c3ccccc3)cc1)[C@@H]1C(=O)N(C)C(=O)[C@@H]12"
Given back: inactive

Asked: Could you check what this test reported for "Cc1cc(-c2cn3ccccc3n2)c(C)n1-c1ccccc1" ?
Given back: active

Asked: Hello, I am checking results. What call was entered for CC1(C)CC2CC(C)(CN2CC(O)COc2ccccc2)C1 (stereo unspecified) ?
Given back: active

Asked: # outcome recorded in this test, key = Cc1ccc(C2N(c3cccc(Cl)c3)C(=O)C3CCCN32)o1 (stereo unspecified)
Given back: inactive

Asked: Would you mind telling me which call this test gave CC12CCCCN1CCCc1c2[nH]c2ccccc12 (stereo unspecified) ?
Given back: inactive
